System: MDA-MB-435
protocol_notes: NCI tumour cell line growth inhibition, 48 h
Active and inactive are the calls of the source. Cut-off read from the data, not from the text of the source: active = GI50 up to about 1.1 µM and inactive = higher.
List of GI50 values.
reported_metric: GI50

{"compound": "Cc1ccc2c(c1C)C(=O)/C(=C/c1ccccc1C(=O)O)C2", "reported_metric": "GI50", "result": "> 100 µM (inactive)"}
{"compound": "CCOC(=O)CCc1c(C(=O)OCC)[nH]c(/C=C2/NC(=O)C(C)=C2CC)c1C", "reported_metric": "GI50", "result": "6.73 µM (inactive)"}
{"compound": "Nc1nc(Cl)cc(NCC2(CO)CCC(OCc3ccccc3)C2)n1 (stereo unspecified)", "reported_metric": "GI50", "result": "14.8 µM (inactive)"}
{"compound": "Oc1cc(Cl)cc2cc(Br)cnc12", "reported_metric": "GI50", "result": "4.65 µM (inactive)"}
{"compound": "CCC1CCC2c3c([nH]c4ccccc34)C3C(=O)N(c4ccc(OC)cc4)C(=O)C3C2C1 (stereo unspecified)", "reported_metric": "GI50", "result": "55.5 µM (inactive)"}
{"compound": "Cc1cc2[n-][n+]3ncc(-c4ccccc4)n3c2cc1[N+](=O)[O-]", "reported_metric": "GI50", "result": "> 100 µM (inactive)"}

Source listed as ChEMBL document CHEMBL1201862.
